The following compounds are listed with their measured pKi values.
system-tested: SSTR2 (Homo sapiens, UniProt P30874)
Sequence (P30874 whole entry): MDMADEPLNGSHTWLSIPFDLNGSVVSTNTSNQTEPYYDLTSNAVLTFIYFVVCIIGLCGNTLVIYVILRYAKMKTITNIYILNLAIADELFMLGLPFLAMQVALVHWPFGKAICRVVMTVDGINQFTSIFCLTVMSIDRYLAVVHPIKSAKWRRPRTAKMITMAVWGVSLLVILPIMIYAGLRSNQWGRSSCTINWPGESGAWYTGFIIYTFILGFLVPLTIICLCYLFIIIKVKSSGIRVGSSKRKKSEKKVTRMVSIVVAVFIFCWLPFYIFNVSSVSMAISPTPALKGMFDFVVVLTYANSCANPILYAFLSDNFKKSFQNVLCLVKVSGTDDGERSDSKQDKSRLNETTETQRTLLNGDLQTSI
measurement-notes: SSTR binding affinity by radioligand binding competition assay ([125I]-Tyr11-Somatostatin, membrane extracts)
experimental-context: radioligand competition, [125I]-Tyr11-Somatostatin 0.1 nM, membrane extracts; Ki from IC50 by Cheng Prusoff; read-out: SSTR2 Ki
pKi: −log10 of the molar value. Numbered stars: 1 amine (or outer) side, 2 acyl side, 3 side chain; on linkers, the order of the positions; unused ones are H or OH. Square brackets hold non-standard residues; d marks the D form. Peptide text beside a SMILES is read from it. * marks the point of attachment. DOTA(Lu)NH(CH2)6NHCOCH2 = O=C(CN1CCN2CCN3CCN(CC1)CC(=O)[O][Lu]([O]C(=O)C2)[O]C(=O)C3)NCCCCCCNC(=O)C*; DOTA(Lu) = O=C1CN2CCN3CCN(CC(=O)*)CCN(CC2)CC(=O)[O][Lu]([O]1)[O]C(=O)C3; Ala(piperidin-4-yl) = O=C([C@H](CC1CCN([*:3])CC1)N[*:1])[*:2]; dTrp(βS-Me) = C[C@@H](c1c[nH]c2ccccc12)[C@@H](N)C(=O)O; NMehCys = CN[C@@H](CCS)C(=O)O; NMeK = CN[C@@H](CCCCN)C(=O)O; Phg = N[C@H](C(=O)O)c1ccccc1

Record excerpt, results attached:
- compound: "C[C@@H]1NC(=O)[C@H](CCSCC(=O)NCCCCCCNC(=O)CN2CCN3CCN4CCN(CC2)CC(=O)[O][Lu]([O]C(=O)C3)[O]C(=O)C4)N(C)C(=O)[C@H](Cc2ccccc2)NC(=O)[C@H]([C@@H](C)O)NC(=O)[C@H](CCCCN)NC(=O)[C@@H](Cc2c[nH]c3ccccc23)NC1=O [RB-0005696] (cyclo(A[dW]KTF[NMehCys](DOTA(Lu)NH(CH2)6NHCOCH2)))"
  pKi: "7.48 to 8.00"
- compound: "C[C@@H]1NC(=O)[C@H](CC2CCNCC2)NC(=O)[C@@H]([C@@H](C)c2c[nH]c3ccccc23)NC(=O)[C@H](Cc2ccc(O)cc2)NC(=O)[C@H](CCCCNC(=O)CN2CCN3CCN4CCN(CC2)CC(=O)[O][Lu]([O]C(=O)C3)[O]C(=O)C4)N(C)C(=O)[C@H](Cc2ccccc2)NC1=O [RB-0006319] (cyclo(AF[NMeK](DOTA(Lu))Y[dTrp(βS-Me)][Ala(piperidin-4-yl)]))"
  pKi: "> 9.00"

// moving on: another record for pKi
Name the reported pKi value associated with the compound C[C@@H](O)[C@@H]1NC(=O)[C@H](CCCCN)NC(=O)[C@@H](Cc2c[nH]c3ccccc23)NC(=O)[C@H](Cc2ccc(O)cc2)NC(=O)[C@H](CCSCC(=O)NCCCCCCNC(=O)CN2CCN3CCN4CCN(CC2)CC(=O)[O][Lu]([O]C(=O)C3)[O]C(=O)C4)N(C)C(=O)[C@H](c2ccccc2)NC1=O [RB-0004821] (cyclo(KT[Phg][NMehCys](DOTA(Lu)NH(CH2)6NHCOCH2)Y[dW]))
8.48 to 9.00

----------
measurement-notes: Peptide conjugate biodistribution measured by tissue PK (ICP-MS, % ID/g in kidney tissue at 2 h)
Format: in vivo
experimental-context: 2 h time point, mouse
Square brackets hold non-standard residues; d marks the D form. Peptide text beside a SMILES is read from it. * marks the point of attachment. DOTA(Lu)NH(CH2)6NHCOCH2 = O=C(CN1CCN2CCN3CCN(CC1)CC(=O)[O][Lu]([O]C(=O)C2)[O]C(=O)C3)NCCCCCCNC(=O)C*; dTrp(βS-Me) = C[C@@H](c1c[nH]c2ccccc12)[C@@H](N)C(=O)O; Ala(piperazin-1-yl) = N[C@@H](CN1CCNCC1)C(=O)O; Lys(Me) = CNCCCC[C@H](N)C(=O)O; NMehCys = CN[C@@H](CCS)C(=O)O
Decision: tissue uptake at 2 h beneath 3 %ID/g gives 1; tissue uptake at 2 h meeting or exceeding 3 %ID/g gives 0.

These recorded examples may help you get a feel for the data.
- compound: "C[C@@H](O)[C@@H]1NC(=O)[C@H](CCCCN)NC(=O)[C@H](Cc2c[nH]c3ccccc23)NC(=O)[C@H](Cc2ccc(O)cc2)NC(=O)[C@H](CCSCC(=O)NCCOCCOCCOCCNC(=O)CN2CCN3CCN4CCN(CC2)CC(=O)[O][Lu]([O]C(=O)C3)[O]C(=O)C4)N(C)C(=O)[C@H](Cc2ccccc2)NC1=O [RB-0005502]"
  class: 0
- compound: "C[C@@H](O)[C@@H]1NC(=O)[C@H](CN2CCNCC2)NC(=O)[C@@H](Cc2c[nH]c3ccccc23)NC(=O)[C@H](Cc2ccc(O)cc2)NC(=O)[C@H](CCSCC(=O)NCCCCCCNC(=O)CN2CCN3CCN4CCN(CC2)CC(=O)[O][Lu]([O]C(=O)C3)[O]C(=O)C4)N(C)C(=O)[C@H](Cc2ccccc2)NC1=O [RB-0005805] (cyclo(F[NMehCys](DOTA(Lu)NH(CH2)6NHCOCH2)Y[dW][Ala(piperazin-1-yl)]T))"
  class: 1
- compound: "C[C@@H](O)[C@@H]1NC(=O)[C@H](CCCCN)NC(=O)[C@@H](Cc2c[nH]c3ccccc23)NC(=O)[C@H](Cc2ccc(O)cc2)NC(=O)[C@H](CCSCC(=O)NCCCCCCNC(=O)CN2CCN3CCN4CCN(CC2)CC(=O)[O][Lu]([O]C(=O)C3)[O]C(=O)C4)N(C)C(=O)[C@H](Cc2ccccc2)NC1=O [RB-0003149]"
  class: 0
- compound: "CNCCCC[C@@H]1NC(=O)[C@@H](Cc2c[nH]c3ccccc23)NC(=O)[C@H](Cc2ccc(O)cc2)NC(=O)[C@H](CCSCC(=O)NCCCCCCNC(=O)CN2CCN3CCN4CCN(CC2)CC(=O)[O][Lu]([O]C(=O)C3)[O]C(=O)C4)N(C)C(=O)[C@H](Cc2ccccc2)NC(=O)[C@H]([C@@H](C)O)NC1=O [RB-0005799] (cyclo(F[NMehCys](DOTA(Lu)NH(CH2)6NHCOCH2)Y[dW][Lys(Me)]T))"
  class: 1

Input C[C@@H](O)[C@@H]1NC(=O)[C@H](CN2CCNCC2)NC(=O)[C@@H]([C@@H](C)c2c[nH]c3ccccc23)NC(=O)[C@H](Cc2ccc(O)cc2)NC(=O)[C@H](CCSCC(=O)NCCCCCCNC(=O)CN2CCN3CCN4CCN(CC2)CC(=O)[O][Lu]([O]C(=O)C3)[O]C(=O)C4)N(C)C(=O)[C@H](Cc2ccccc2)NC1=O [RB-0006072] (cyclo(F[NMehCys](DOTA(Lu)NH(CH2)6NHCOCH2)Y[dTrp(βS-Me)][Ala(piperazin-1-yl)]T)) ; condition: tissue uptake at 2 h strictly below 3 %ID/g. Does it hold?
1

Provenance of the data: patent US20250222146A1
